# EXPERIMENT_DESCRIPTION: chemical genetic growth profiling, strain panel (AID 1159580);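 also: tested at 20 µM; growth read once vehicle control cultures reached saturation at 30 °C; 1 = growth at the plate median or of vehicle wells; lower values mean less growth of the strain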
# DETAILS: S. cerevisiae deletion strains, growth OD, locus YKL085W, strain MDH1
About 2,000 (36%) of roughly 5,500 compounds were called active. Inconclusive results (about 18%) are left out. Rule as the data show it: active = normalized growth mostly below about 0.91 (no sharp cut-off); inconclusive = no clear call, values can overlap the other calls; inactive = mostly above about 0.92. Some of the results follow.
Please state which outcome applies, choosing from active, inactive

Example cases with answers are listed next.
CC(=O)c1c(O)c(C)c(O)c2c1OC1=CC(=O)C(C(C)=O)C(=O)C12C (stereo unspecified) : active
CCOP(=S)(OCC)SCn1c(=O)oc2cc(Cl)ccc21 : inactive
COC(=O)C[C@H]1C(C)(C)C(=O)[C@@H]2CC3=C4CC(=O)O[C@@H](c5ccoc5)[C@]4(C)CCC3[C@@]1(C)C2=O (stereo partly specified) : inactive
NCCNC(=O)c1ccc(Cl)cc1 : inactive

Can you look up the reported call for CC(=O)O[C@H]1C[C@@H](OC(C)=O)C(C)(C)C2C[C@@H](OC(C)=O)[C@@]3(C)C4=CC(=O)O[C@@H](c5ccoc5)[C@]4(C)CCC3[C@]21C (stereo partly specified) for me? inactive

Can you look up the reported call for CC(C)NCC(O)c1ccc2ccccc2c1 (stereo unspecified) for me? inactive

Can you look up the reported call for `O=C(O)/C=C/C=C/c1ccccc1` for me? active

Can you look up the reported call for `CC(=O)NCCCCCC(=O)O` for me? inactive

Can you look up the reported call for `O=C(O)c1ccccc1Nc1cccc(C(F)(F)F)c1` for me? inactive

Can you look up the reported call for CC(C)(C)NCC(O)c1ccccc1Cl (stereo unspecified) for me? inactive

Can you look up the reported call for `Nc1ccc(C(=O)NCC(=O)O)cc1` for me? inactive

====

# EXPERIMENT_DESCRIPTION: chemical genetic growth profiling, strain panel (AID 1159580);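 also: tested at 20 µM; growth read once vehicle control cultures reached saturation at 30 °C; 1 = growth at the plate median or of vehicle wells; lower values mean less growth of the strain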
# DETAILS: S. cerevisiae deletion strains, growth OD, locus YBR009C, strain hhf1, active compounds read low
Out of some 5,500 compounds screened, about 2,000 (36%) were called active. Another 18% or so got no clear call; they are omitted. Some of the results follow.
Some compounds, each annotated with its measured normalized growth.
Number only, please.

O=C(O)C1=CCNCC1 : 1.03
C1CNCCN1 : 1.01
Cc1c(Nc2ncccc2C(=O)O)cccc1C(F)(F)F : 0.967
C=C(CC)C(=O)c1ccc(OCC(=O)O)c(Cl)c1Cl : 1.01
OC[C@@H](O)[C@@H](O[C@@H]1O[C@H](CO)[C@@H](O)[C@H](O)[C@H]1O)[C@H](O)[C@@H](O)CO : 1

Param item = CN1C(CC(=O)c2ccccc2)CCCC1CC(O)c1ccccc1 (configuration not stated) ; retrieve measured normalized growth. 0.972

Param item = C[C@H]1[C@H]2CCC3C4CC=C5C[C@@H](N(C)C)CC[C@]5(C)C4CC[C@@]32CN1C (some centres not stated) ; retrieve measured normalized growth. 0.95

Param item = C=C(C)C1CC=C(CO)CC1 (configuration not stated) ; retrieve measured normalized growth. 0.994

Param item = O=c1[nH]c(=O)n(C2C[C@@H](O)[C@@H](CO)O2)cc1F (some centres not stated) ; retrieve measured normalized growth. 1

Param item = `C=C(C)[C@H]1CC=C(C(=O)O)CC1` ; retrieve measured normalized growth. 0.939

Param item = `O=C(O)CF` ; retrieve measured normalized growth. 1.06

Param item = `CCN(CC)CCNC(=O)c1cc(S(C)(=O)=O)ccc1OC` ; retrieve measured normalized growth. 0.989

====

Some molecules, each annotated with its measured normalized growth.
# EXPERIMENT_DESCRIPTION: chemical genetic growth profiling, strain panel (AID 1159580);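 also: tested at 20 µM; growth read once vehicle control cultures reached saturation at 30 °C; 1 = growth at the plate median or of vehicle wells; lower values mean less growth of the strain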
# DETAILS: S. cerevisiae deletion strains, growth OD, locus YNL006W, strain LST8, active compounds read low
Among all 5,500 compounds or so, about 2,000 (36%) were called active. About 18% were inconclusive and are not listed. Some of the results follow.
Number only, please.

// below: answered molecules
COC(=O)C1=C(C)NC(C)=C(C(=O)OC)C1c1ccc(Cl)cc1Cl : 0.973
CC(C)c1ccc(NCC(O)CSc2ccccc2)cc1 (configuration not stated) : 0.962
CC(=O)Nc1ccc(/C=C/[N+](=O)[O-])cc1 : 0.996

Param item = `COc1ccc(C(=O)CSC2=NCCc3ccccc32)cc1` ; retrieve measured normalized growth. 0.969

Param item = `Cc1nn(Cc2ccc(C(=O)Sc3ccc(C(F)(F)F)cn3)o2)c(C)c1Br` ; retrieve measured normalized growth. 0.972

Param item = `O=C(c1ccc2ccccc2c1)N1CCN(c2ccnc3cc(Cl)ccc23)CC1` ; retrieve measured normalized growth. 0.995

Param item = `NC(=Nc1ccc(F)cc1)SCc1c(Cl)cccc1Cl` ; retrieve measured normalized growth. 0.982

Param item = `O=C(NCc1ccncc1)c1ccc(-n2cccn2)cc1` ; retrieve measured normalized growth. 0.993

Param item = `O=[N+]([O-])/C=C/c1ccsc1` ; retrieve measured normalized growth. 0.0854

Param item = `Cn1c(CSCCOc2ccccc2)nnc1SCc1ccc(Cl)cc1Cl` ; retrieve measured normalized growth. 0.99

Param item = `Fc1cccc(Cl)c1CSc1nncn1-c1ccc(OCc2ccccc2)cc1` ; retrieve measured normalized growth. 0.994

Param item = `O=C(Nc1ccc(N2CCOCC2)cc1)c1ccc(-n2cccn2)cc1` ; retrieve measured normalized growth. 0.979

====

# EXPERIMENT_DESCRIPTION: chemical genetic growth profiling, strain panel (AID 1159580);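 also: tested at 20 µM; growth read once vehicle control cultures reached saturation at 30 °C; 1 = growth at the plate median or of vehicle wells; lower values mean less growth of the strain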
# DETAILS: S. cerevisiae deletion strains, growth OD, locus YHR030C, strain SLT2, active compounds read low
Hit rate of the full screen: of about 5,500 compounds, about 2,000 (36%) were called active. Roughly 18% stayed inconclusive and do not appear here. Some of the results follow.
Some molecules, each annotated with its measured normalized growth.
Number only, please.

// below: answered molecules
CN1CCCC12NCCc1c2[nH]c2ccccc12 (configuration not stated) : 0.981
NC(=O)c1ccccc1N1CCCCC1 : 0.986
CC(=O)NCCCCCC(=O)O : 1.01
COc1cc(C2N=C(c3ccc(Cl)cc3)SC(c3ccc(Cl)cc3)=N2)cc(OC)c1OC : 0.991
CC1(C)C(C(Cl)Cl)C2(Cl)C(Cl)C(Cl)C1(Cl)C2(Cl)Cl (configuration not stated) : 0.965

Param item = O=C1CSC(c2cccnc2)N1c1ccc(Cl)cc1Cl (configuration not stated) ; retrieve measured normalized growth. 0.958

Param item = `Fc1cccc(F)c1NC(=S)Nc1cc(C(F)(F)F)cc(C(F)(F)F)c1` ; retrieve measured normalized growth. 0.981

Param item = Nc1ncnc2c1ncn2C1O[C@H](COP(=O)(O)O)[C@@H](O)[C@H]1O (some centres not stated) ; retrieve measured normalized growth. 1.01

Param item = `CCn1nc(C)c(Br)c1-c1nc(-c2ccc(C(F)(F)F)cc2)no1` ; retrieve measured normalized growth. 1.08

Param item = Nc1nc2c(ncn2C2C[C@H](O)[C@@H](CO)O2)c(=O)[nH]1 (some centres not stated) ; retrieve measured normalized growth. 1.01

Param item = `O=C(Nc1ccc(C(F)(F)F)cc1)Nc1ccccc1C(=O)O` ; retrieve measured normalized growth. 0.99

Param item = CN[C@H]1C[C@@H](N)[C@H](O)[C@@H](O[C@@H]2O[C@H](CO)[C@@H]3OC4(O[C@@H]3[C@@H]2O)O[C@H](C(N)CO)[C@H](O)[C@H](O)[C@H]4O)[C@@H]1O (some centres not stated) ; retrieve measured normalized growth. 1.05

Param item = CC(=O)O[C@@H]1CC2C(C)(C)C(=O)CC[C@]2(C)C2CC[C@]3(C)C(=CC(=O)O[C@H]3c3ccoc3)[C@@]21C (some centres not stated) ; retrieve measured normalized growth. 1.06

Param item = `Cc1ccc2cc3c(ccc4ccccc43)c3c2c1CC3` ; retrieve measured normalized growth. 0.837

Param item = `O=C(O)c1ccccc1Nc1cccc(OCc2ccc3ccccc3n2)c1` ; retrieve measured normalized growth. 1.03

Param item = `CC(=O)N/C(=C/c1ccc2c(c1)OCO2)C(=O)O` ; retrieve measured normalized growth. 1.06

Param item = `O=C(N/N=C\c1cccs1)c1ccccc1CO` ; retrieve measured normalized growth. 1

Param item = `O=c1c(Cl)c(-n2cccn2)cnn1-c1ccc(Cl)cc1Cl` ; retrieve measured normalized growth. 0.71

Param item = `COc1ccc(-c2c(C)nc3ccc(Cl)cc3c2-c2ccccc2)cc1OC` ; retrieve measured normalized growth. 0.759

Param item = `Fc1cc2n[nH]nc2cc1Cl` ; retrieve measured normalized growth. 0.977

Param item = CC(=O)O[C@@H]1CC2C(C)(C)C=CC(=O)[C@]2(C)C2CC[C@@]3(C)[C@H](c4ccoc4)OC(=O)C4OC43[C@@]21C (some centres not stated) ; retrieve measured normalized growth. 1.01

Param item = NC(=NCCC[C@H](N)C(=O)O)NC(CCC(=O)O)C(=O)O (some centres not stated) ; retrieve measured normalized growth. 1.01
